Tested on: Escherichia coli TOP10;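 note: peptides expressed intracellularly from a pBAD plasmid library in pooled LB shake-flask culture, induced with 0.3% L-arabinose, DNA abundance read by NGS, three biological replicates, DESeq2 with apeglm shrinkage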
Experiment: shrunken log2 fold change of peptide-encoding DNA abundance (4.5 h post-induction vs induction); higher = less antimicrobial activity (less host growth inhibition)
Details: time post-induction: 4.5 h; library: site-saturation at positions 5, 18, 19, 20
Class field: derived from shrunken log2 fold change; ranges one (below -0.08), two (-0.08 to below 0.1), three (0.1 or more)

| biopolymerSequence | assayedTarget | groupLabel |
| --- | --- | --- |
| RRIRMRPPRLPRPRPRPWHEPRP | Escherichia coli TOP10 | one |
| RRIRIRPPRLPRPRPRPGILPRP | Escherichia coli TOP10 | one |
| RRIRCRPPRLPRPRPRPCSSPRP | Escherichia coli TOP10 | two |
| RRIRQRPPRLPRPRPRPDNEPRP | Escherichia coli TOP10 | one |
| RRIRYRPPRLPRPRPRPRDIPRP | Escherichia coli TOP10 | one |
| RRIRRRPPRLPRPRPRPVCNPRP | Escherichia coli TOP10 | three |
| RRIRVRPPRLPRPRPRPIFCPRP | Escherichia coli TOP10 | two |
| RRIRYRPPRLPRPRPRPKMDPRP | Escherichia coli TOP10 | two |
| RRIRTRPPRLPRPRPRPRSPPRP | Escherichia coli TOP10 | two |
| RRIRKRPPRLPRPRPRPIMQPRP | Escherichia coli TOP10 | two |
| RRIRERPPRLPRPRPRPLQSPRP | Escherichia coli TOP10 | one |
| RRIRKRPPRLPRPRPRPTEFPRP | Escherichia coli TOP10 | two |
| RRIRCRPPRLPRPRPRPANHPRP | Escherichia coli TOP10 | one |
| RRIRMRPPRLPRPRPRPLGEPRP | Escherichia coli TOP10 | three |
| RRIRKRPPRLPRPRPRPCPKPRP | Escherichia coli TOP10 | three |
| RRIRGRPPRLPRPRPRPLLWPRP | Escherichia coli TOP10 | three |
| RRIRERPPRLPRPRPRPKKQPRP | Escherichia coli TOP10 | one |
| RRIRRRPPRLPRPRPRPHIMPRP | Escherichia coli TOP10 | one |
| RRIRWRPPRLPRPRPRPLAGPRP | Escherichia coli TOP10 | three |
| RRIRVRPPRLPRPRPRPNPEPRP | Escherichia coli TOP10 | one |
| RRIRNRPPRLPRPRPRPMVLPRP | Escherichia coli TOP10 | two |
| RRIRIRPPRLPRPRPRPNHLPRP | Escherichia coli TOP10 | one |
| RRIRWRPPRLPRPRPRPVWKPRP | Escherichia coli TOP10 | two |
| RRIRVRPPRLPRPRPRPWYLPRP | Escherichia coli TOP10 | one |
| RRIRERPPRLPRPRPRPYVWPRP | Escherichia coli TOP10 | one |
| RRIRDRPPRLPRPRPRPVTYPRP | Escherichia coli TOP10 | two |
| RRIRCRPPRLPRPRPRPMLMPRP | Escherichia coli TOP10 | two |
| RRIRHRPPRLPRPRPRPAAYPRP | Escherichia coli TOP10 | one |
| RRIRERPPRLPRPRPRPPRWPRP | Escherichia coli TOP10 | three |
| RRIRNRPPRLPRPRPRPPLAPRP | Escherichia coli TOP10 | three |
| RRIRTRPPRLPRPRPRPVMYPRP | Escherichia coli TOP10 | two |
| RRIRPRPPRLPRPRPRPCCWPRP | Escherichia coli TOP10 | three |
| RRIRRRPPRLPRPRPRPTRWPRP | Escherichia coli TOP10 | three |
| RRIRSRPPRLPRPRPRPTPTPRP | Escherichia coli TOP10 | three |
| RRIRARPPRLPRPRPRPRVKPRP | Escherichia coli TOP10 | three |
| RRIRNRPPRLPRPRPRPRFSPRP | Escherichia coli TOP10 | two |
| RRIRSRPPRLPRPRPRPPRAPRP | Escherichia coli TOP10 | three |
| RRIRSRPPRLPRPRPRPQKPPRP | Escherichia coli TOP10 | one |
| RRIRDRPPRLPRPRPRPYSLPRP | Escherichia coli TOP10 | two |
| RRIRNRPPRLPRPRPRPSEYPRP | Escherichia coli TOP10 | one |
| RRIRRRPPRLPRPRPRPFMPPRP | Escherichia coli TOP10 | two |
| RRIRKRPPRLPRPRPRPAGNPRP | Escherichia coli TOP10 | three |
| RRIRCRPPRLPRPRPRPQRDPRP | Escherichia coli TOP10 | one |
| RRIRLRPPRLPRPRPRPGIEPRP | Escherichia coli TOP10 | two |
| RRIRKRPPRLPRPRPRPAVKPRP | Escherichia coli TOP10 | one |
| RRIRGRPPRLPRPRPRPADAPRP | Escherichia coli TOP10 | three |
| RRIRERPPRLPRPRPRPIHRPRP | Escherichia coli TOP10 | two |
| RRIRKRPPRLPRPRPRPKMEPRP | Escherichia coli TOP10 | three |
| RRIRLRPPRLPRPRPRPKTKPRP | Escherichia coli TOP10 | two |
| RRIRTRPPRLPRPRPRPGWFPRP | Escherichia coli TOP10 | three |
| RRIRIRPPRLPRPRPRPYKAPRP | Escherichia coli TOP10 | one |
| RRIRERPPRLPRPRPRPYNFPRP | Escherichia coli TOP10 | one |
| RRIRWRPPRLPRPRPRPGAEPRP | Escherichia coli TOP10 | three |
| RRIRRRPPRLPRPRPRPLPDPRP | Escherichia coli TOP10 | three |
| RRIRDRPPRLPRPRPRPGTAPRP | Escherichia coli TOP10 | two |
| RRIRYRPPRLPRPRPRPARGPRP | Escherichia coli TOP10 | three |
| RRIRGRPPRLPRPRPRPEIHPRP | Escherichia coli TOP10 | three |
| RRIRDRPPRLPRPRPRPMGVPRP | Escherichia coli TOP10 | two |
| RRIRERPPRLPRPRPRPNCEPRP | Escherichia coli TOP10 | one |
| RRIRIRPPRLPRPRPRPWFGPRP | Escherichia coli TOP10 | one |
| RRIRVRPPRLPRPRPRPRAMPRP | Escherichia coli TOP10 | three |
| RRIRDRPPRLPRPRPRPKTTPRP | Escherichia coli TOP10 | two |
